Biological target: T1, mouse big-ET-1 (mouse)
T1 construct: also called mBig-ET-1
T1 peptide: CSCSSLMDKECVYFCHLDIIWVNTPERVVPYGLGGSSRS
Experiment: SPR (Biacore T200), 37 C, mAb capture, peptide analyte
property: kon (M⁻¹ s⁻¹)

binder: H4H6353P (antibody, V domains shown, Human IgG4 Fc (prefix H4H)) VH: EVQLVESGGGLVKPGGSLRLSCAASGFSFNYAWMSWVRQAPGKGLEWIGRIKSKINGGTTDYTAPVKGRFTISRDDSKNTLYLQMNSLKTEDTAVYYCRGDEDFWGQGTLVTVSS VL: DVVMTQSPLSLPVTLGQPASISCRSSQSLVYSDGFTYLNWFRQRPGQSPRRLIYKVSNRDSGVPDRFSGSGSGTDFTLRISRVEAEDVGIYYCMQGTHWPYTFGQGTKLEIK
recorded-measurement: 2900

binder: H4H6329P (antibody, V domains shown, Human IgG4 Fc (prefix H4H)) VH: QVQLVESGGGVVQPGRSLRLSCAASGFTFGSYGMHWVRQAPGKGLEWVAVIWYDGSDEYYTDSVKGRFTVSRDNSKYTLYLQMNSLRADDTAVYYCARDGYRTRGNYFDYWGQGTLVTVSS VL: DVVMTQSPLSLPVALGQPASISCRSSQSLVYSDGNTYLNWFQQRPGQSPRRLIYKVSNRDSGVPDRFGGSGSGTDFTLKISRVEAEDVGLYYCMQGTHWPPTFGGGTKVEIK
recorded-measurement: 11600

The reported numbers originate from patent US20130216547A1.
